Data credit: the supplement of paper PMC9780213

This listing pairs molecules with measured cell count.
- Test system: U2OS-LMNB1-TUBA1B-ACTB
- Measurement description: cell count relative to DMSO control (panel C1, DRAQ5/ER stain) (fraction of control); higher = more cells (less toxicity)
- Run conditions: 1.25 µM; treatment time: 24 h
// no unit, no text: just the number

Molecule	cell count
O=C(O)CCCCC(CCSCc1ccccc1)SCc1ccccc1 (stereo not given)	1.03
O=C(/C=C/c1cccc(S(=O)(=O)Nc2ccccc2)c1)NO	1.02
CN1CCC(c2c(O)cc(O)c3c(=O)cc(-c4ccccc4Cl)oc23)[C@@H](O)C1 (stereo not given in full)	0.569
COc1cc(NS(C)(=O)=O)ccc1Nc1c2ccccc2nc2ccccc12	0.513
O=c1[nH]c(=O)n([C@H]2C[C@H](O)[C@@H](CO)O2)cc1F	0.979

[Q] Specify cell count for `C[C@H]1CCC/C=C/[C@@H]2C[C@H](O)C[C@H]2[C@H](O)/C=C/C(=O)O1` , system U2OS-LMNB1-TUBA1B-ACTB.
[A] 0.661

[Q] Report value only: cell count, U2OS-LMNB1-TUBA1B-ACTB, `Cn1c(CCCC(=O)O)nc2cc(N(CCCl)CCCl)ccc21`
[A] 0.607

[Q] State the measured cell count (U2OS-LMNB1-TUBA1B-ACTB) of Fc1cc(F)c2c(c1)[C@H]1C=CC[C@H]1C(c1cccnc1)N2 (stereo not given in full) [golgicide-A]
[A] 0.982

[Q] Please respond with reported cell count (system U2OS-LMNB1-TUBA1B-ACTB) for CC(NC(=O)c1ccccc1/N=C/c1c(O)ccc2ccccc12)c1ccccc1 (stereo not given) .
[A] 0.727

[Q] Provide cell count, recorded with U2OS-LMNB1-TUBA1B-ACTB, of `O=C(CCCN1CCC(O)(c2ccc(Cl)cc2)CC1)c1ccc(F)cc1`
[A] 1.03

[Q] Supply cell count measured with U2OS-LMNB1-TUBA1B-ACTB for `CC[C@]1(O)C[C@H]2CN(CCc3c([nH]c4ccccc34)[C@@](C(=O)OC)(c3cc4c(cc3OC)N(C=O)[C@H]3[C@@](O)(C(=O)OC)[C@H](OC(C)=O)[C@]5(CC)C=CCN6CC[C@]43[C@@H]65)C2)C1` .
[A] 0.606

[Q] Using U2OS-LMNB1-TUBA1B-ACTB as the test system, report measured cell count of `COc1cc(-n2c(=S)[nH]c3ccccc3c2=O)c(Cl)cc1Cl` .
[A] 1.08

[Q] Answer briefly: cell count recorded on U2OS-LMNB1-TUBA1B-ACTB for `COc1cccc2c1C(=O)c1c(O)c3c(c(O)c1C2=O)C[C@@](O)(C(C)=O)C[C@@H]3O[C@H]1C[C@H](N)[C@H](O)[C@H](C)O1`
[A] 0.645

[Q] Quote U2OS-LMNB1-TUBA1B-ACTB cell count for entry `C[C@H]1O[C@@H](O[C@H]2[C@@H](O)C[C@H](O[C@H]3[C@@H](O)C[C@H](O[C@H]4CC[C@@]5(C)[C@H](CC[C@@H]6[C@@H]5CC[C@]5(C)[C@@H](C7=CC(=O)OC7)CC[C@]65O)C4)O[C@@H]3C)O[C@@H]2C)C[C@H](O)[C@@H]1O` .
[A] 1.02

[Q] // output cell count; input `O=NN(CCCl)C(=O)NC1CCCCC1` ; system U2OS-LMNB1-TUBA1B-ACTB
[A] 0.927
